Target: Tyrosine-protein phosphatase non-receptor type 2 (Homo sapiens, UniProt P17706)
Sequence (P17706 whole entry): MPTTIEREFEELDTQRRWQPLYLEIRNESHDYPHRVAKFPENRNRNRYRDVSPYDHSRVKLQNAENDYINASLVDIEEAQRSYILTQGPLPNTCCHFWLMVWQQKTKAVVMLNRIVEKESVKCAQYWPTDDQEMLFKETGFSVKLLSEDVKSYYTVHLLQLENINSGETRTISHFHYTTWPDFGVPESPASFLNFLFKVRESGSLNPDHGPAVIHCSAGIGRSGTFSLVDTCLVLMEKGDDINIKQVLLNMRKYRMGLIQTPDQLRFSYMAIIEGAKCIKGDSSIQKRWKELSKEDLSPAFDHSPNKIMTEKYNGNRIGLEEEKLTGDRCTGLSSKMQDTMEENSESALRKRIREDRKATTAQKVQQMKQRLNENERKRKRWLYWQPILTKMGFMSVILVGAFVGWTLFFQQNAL
Assay: Inhibition of TCPTP
property: pIC50
One number for each entry, as −log10 of the molar value.

Dear colleague, please send me the reported pIC50 for COC(=O)C(Cc1ccccc1)(Cc1ccc(NS(=O)(=O)O)cc1)C(=O)OC when you can.
4.71

###

Target: Receptor-type tyrosine-protein phosphatase alpha (Homo sapiens)
Sequence (P18433 whole entry): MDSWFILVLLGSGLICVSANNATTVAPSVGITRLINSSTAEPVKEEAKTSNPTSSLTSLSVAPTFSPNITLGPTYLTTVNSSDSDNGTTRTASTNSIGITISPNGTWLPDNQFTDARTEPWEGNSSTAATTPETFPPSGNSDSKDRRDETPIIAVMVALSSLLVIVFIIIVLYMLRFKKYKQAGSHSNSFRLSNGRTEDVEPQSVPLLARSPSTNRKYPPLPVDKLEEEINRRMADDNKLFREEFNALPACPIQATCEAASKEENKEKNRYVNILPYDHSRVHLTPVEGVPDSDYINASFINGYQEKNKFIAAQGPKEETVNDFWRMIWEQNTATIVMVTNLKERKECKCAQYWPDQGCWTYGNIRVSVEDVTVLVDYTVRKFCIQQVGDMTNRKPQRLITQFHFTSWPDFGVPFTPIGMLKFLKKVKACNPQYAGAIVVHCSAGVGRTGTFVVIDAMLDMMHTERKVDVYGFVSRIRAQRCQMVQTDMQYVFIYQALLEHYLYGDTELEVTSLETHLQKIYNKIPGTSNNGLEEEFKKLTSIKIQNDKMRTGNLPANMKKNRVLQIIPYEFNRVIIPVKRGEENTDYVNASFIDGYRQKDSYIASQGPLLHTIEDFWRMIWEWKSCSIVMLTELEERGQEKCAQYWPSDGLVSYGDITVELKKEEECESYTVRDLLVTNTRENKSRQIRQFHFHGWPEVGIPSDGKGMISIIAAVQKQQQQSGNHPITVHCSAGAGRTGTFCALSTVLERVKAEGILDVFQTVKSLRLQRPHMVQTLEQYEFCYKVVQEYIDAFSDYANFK
property: pIC50
One number for each entry, as −log10 of the molar value.

Dear colleague, please send me the reported pIC50 for COC(=O)C(Cc1ccccc1)(Cc1ccc(NS(=O)(=O)O)cc1)C(=O)OC when you can.
6.05

###

Reported IC50, Receptor-type tyrosine-protein phosphatase epsilon (Homo sapiens, UniProt P23469).

[[record]]
molecule = "CCOC(=O)CC(Cc1ccc(NS(=O)(=O)O)cc1)(C(=O)OC)C(=O)OC"
property = "IC50"
test_value = "> 500 µM"


Dear colleague, please send me the reported IC50 for CCOC(=O)C(Cc1ccc(NS(=O)(=O)O)cc1)(NC(=O)OCc1ccccc1)C(=O)OC (configuration not stated) when you can.
> 500 µM
